- Tested system: Growth hormone secretagogue receptor type 1 (Homo sapiens, UniProt Q92847)
- Sequence (Q92847 whole entry): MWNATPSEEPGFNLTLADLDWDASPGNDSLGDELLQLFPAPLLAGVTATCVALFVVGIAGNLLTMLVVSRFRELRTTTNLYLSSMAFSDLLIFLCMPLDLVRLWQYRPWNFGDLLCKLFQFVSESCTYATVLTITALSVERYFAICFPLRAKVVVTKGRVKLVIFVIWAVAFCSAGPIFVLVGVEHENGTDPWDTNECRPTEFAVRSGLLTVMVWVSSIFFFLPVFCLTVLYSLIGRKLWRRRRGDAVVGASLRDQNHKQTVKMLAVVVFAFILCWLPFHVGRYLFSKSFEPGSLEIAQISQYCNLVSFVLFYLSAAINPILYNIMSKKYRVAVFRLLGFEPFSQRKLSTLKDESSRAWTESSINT
- Method notes: SUPPLEMENTARY: Agonist activity at GSHR by FLIPR assay. Same assay as CHEMBL941945
- Assay type: functional
pEC50: −log10 of the molar value.
Readout kind: pEC50

Some solved cases for reference:
C[C@@H]1CN(c2cccc(NS(=O)(=O)c3ccc(-c4ccc(Cl)s4)cc3)c2)C[C@H](C)N1 | 7.60
COc1ccc(N2C[C@@H](C)N[C@@H](C)C2)cc1NS(=O)(=O)c1ccc(Cl)c2ccccc12 | 7.30

I = C[C@@H]1CN(c2ccc(Cl)c(NS(=O)(=O)c3ccc(-c4ccco4)cc3)c2)C[C@H](C)N1
II = COc1ccc(NS(=O)(=O)c2ccc(Cl)c(Cl)c2)cc1N1C[C@@H](C)N[C@@H](C)C1
Could you point out whether the larger pEC50 belongs to I or to II ? Return value: the label identifying the chosen record. I
(I: 8.80, II: 7.20)
